target-entity: hMAO-A (Homo sapiens, UniProt P21397)
Construct: purchased Sigma-Aldrich
Sequence (P21397 1-527): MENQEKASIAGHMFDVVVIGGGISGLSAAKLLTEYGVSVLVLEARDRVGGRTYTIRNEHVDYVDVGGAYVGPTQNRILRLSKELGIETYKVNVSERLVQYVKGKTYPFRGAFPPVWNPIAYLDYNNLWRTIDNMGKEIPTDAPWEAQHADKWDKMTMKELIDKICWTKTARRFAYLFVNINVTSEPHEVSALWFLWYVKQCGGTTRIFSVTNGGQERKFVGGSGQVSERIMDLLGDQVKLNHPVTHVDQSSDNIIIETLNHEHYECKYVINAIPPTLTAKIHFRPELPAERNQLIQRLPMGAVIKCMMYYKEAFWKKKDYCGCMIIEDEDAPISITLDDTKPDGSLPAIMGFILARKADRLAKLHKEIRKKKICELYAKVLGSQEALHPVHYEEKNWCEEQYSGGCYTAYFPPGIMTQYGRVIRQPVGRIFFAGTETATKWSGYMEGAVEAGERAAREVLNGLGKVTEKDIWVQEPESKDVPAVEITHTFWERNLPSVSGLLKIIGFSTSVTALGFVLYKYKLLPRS
assay-procedure: In vitro hMAO inhibitory assay (luminometric), MAO-A
Format: biochemical
Please provide measured IC50 for the entries that follow.

Retrieve IC50 measured for O=c1c(-c2ccc(O)cc2)coc2cc(O[C@@H]3O[C@H](CO)[C@@H](O)[C@H](O)[C@H]3O)ccc12 and print it.
> 400 µM

Retrieve IC50 measured for C[C@@H]1O[C@@H](OC[C@H]2O[C@@H](Oc3c(-c4ccc(O)c(O)c4)oc4cc(O)cc(O)c4c3=O)[C@H](O)[C@@H](O)[C@@H]2O)[C@H](O)[C@H](O)[C@H]1O and print it.
387 µM

Retrieve IC50 measured for CC1OC(OCC2OC(Oc3c(-c4ccc(O)c(O)c4)oc4cc(O)cc(O)c4c3=O)C(O)C(O)C2O)C(O)C(O)C1O (stereo not drawn) [Quercetin-3-O-robinobioside] and print it.
> 400 µM

====

Please provide measured IC50 for the entries that follow.
target-entity: hMAO-A (Homo sapiens, UniProt P21397)
Construct: purchased Sigma-Aldrich
Sequence (P21397 1-527): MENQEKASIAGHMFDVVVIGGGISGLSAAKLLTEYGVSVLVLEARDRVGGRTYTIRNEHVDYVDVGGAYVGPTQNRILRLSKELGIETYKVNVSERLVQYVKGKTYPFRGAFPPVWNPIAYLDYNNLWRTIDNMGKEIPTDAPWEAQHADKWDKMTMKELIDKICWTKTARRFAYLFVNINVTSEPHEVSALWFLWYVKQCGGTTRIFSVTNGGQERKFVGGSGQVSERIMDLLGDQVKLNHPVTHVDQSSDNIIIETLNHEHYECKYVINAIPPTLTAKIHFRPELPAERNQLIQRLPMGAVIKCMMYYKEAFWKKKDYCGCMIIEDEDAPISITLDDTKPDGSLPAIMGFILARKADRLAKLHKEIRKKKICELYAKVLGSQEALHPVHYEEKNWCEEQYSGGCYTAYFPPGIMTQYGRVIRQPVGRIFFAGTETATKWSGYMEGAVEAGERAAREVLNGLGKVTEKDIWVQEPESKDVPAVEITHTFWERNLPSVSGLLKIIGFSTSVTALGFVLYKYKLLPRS
assay-procedure: In vitro hMAO inhibitory assay (luminometric), MAO-A
Type: biochemical
assay-context: 160 µM substrate, 0.5 µg enzyme, 25 °C, 1 h; read-out: hMAO-A IC50 (Mean ± SD)

Retrieve IC50 measured for O=c1c(-c2ccc(O)cc2)coc2cc(O[C@@H]3O[C@H](CO)[C@@H](O)[C@H](O)[C@H]3O)cc(O)c12 and print it.
> 400 µM

Retrieve IC50 measured for O=c1oc2cc(O)ccc2c2oc3cc(O)ccc3c12 and print it.
1.99 µM

Retrieve IC50 measured for CC1OC(OCC2OC(Oc3c(-c4ccc(O)cc4)oc4cc(OC5OC(C)C(O)C(O)C5O)cc(O)c4c3=O)C(O)C(O)C2O)C(O)C(O)C1O (centres unmarked) [Robinin, kaempferol 3-O-robinoside-7-O-rhamnoside] and print it.
> 400 µM

Retrieve IC50 measured for CC1OC(OCC2OC(Oc3c(-c4ccc(O)cc4)oc4cc(O)cc(O)c4c3=O)C(O)C(O)C2O)C(O)C(O)C1O (centres unmarked) [Kaempferol-3-O-robinobioside] and print it.
> 400 µM

Retrieve IC50 measured for CC1OC(OCC2OC(Oc3c(-c4ccc(O)cc4)oc4cc(O)cc(O)c4c3=O)C(O)C(O)C2O)C(O)C(O)C1O (centres unmarked) [Nicotiflorine] and print it.
> 400 µM
